Target: Hexokinase-4 (Homo sapiens) (UniProt P35557)
Sequence (P35557 whole entry): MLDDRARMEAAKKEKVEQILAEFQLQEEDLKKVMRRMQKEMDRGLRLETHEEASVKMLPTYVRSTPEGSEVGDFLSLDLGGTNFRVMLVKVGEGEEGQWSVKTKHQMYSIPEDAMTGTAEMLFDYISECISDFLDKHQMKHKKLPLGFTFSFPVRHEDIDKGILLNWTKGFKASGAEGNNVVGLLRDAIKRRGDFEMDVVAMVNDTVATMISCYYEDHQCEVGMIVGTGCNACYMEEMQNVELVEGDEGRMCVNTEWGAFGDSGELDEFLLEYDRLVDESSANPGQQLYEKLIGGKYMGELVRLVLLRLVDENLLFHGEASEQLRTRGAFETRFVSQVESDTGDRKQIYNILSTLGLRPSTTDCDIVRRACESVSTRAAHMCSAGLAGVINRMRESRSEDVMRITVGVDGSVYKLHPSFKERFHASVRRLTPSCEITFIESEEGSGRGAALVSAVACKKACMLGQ
Experiment: Activation of recombinant human glucokinase assessed as conversion of D-glucose to D-glucose-6-phosphate in presence of 2.5 mM glucose by G6PDH coupled spectrophotometric assay relative to control
Exercise: state measured %max for each of the molecules provided.
Number only, in %; omit the unit.

Any idea what %max was measured for CN1C(=O)CCC1c1cc2[nH]c(-c3ccccn3)cc2cc1Oc1ccc(S(C)(=O)=O)nc1 (stereo in doubt; 1-en) ?
628

Any idea what %max was measured for CN1C(=O)CCC1c1cc2[nH]c(-c3ccc(C(C)(C)O)cn3)cc2cc1Oc1ccc(S(C)(=O)=O)nc1 (stereo in doubt; 4) ?
739

Any idea what %max was measured for CN1C(=O)CCC1c1cc2[nH]c(-c3ccc(C(F)(F)F)cn3)cc2cc1Oc1ccc(S(C)(=O)=O)nc1 (single isomer, unassigned; ent-2) ?
583

Any idea what %max was measured for Cc1cnc(-c2cc3cc(Oc4ccc(S(C)(=O)=O)nc4)c(C4CCC(=O)N4C)cc3[nH]2)s1 (single isomer, unassigned) ?
620

Any idea what %max was measured for CN1C(=O)CCC1c1cc2[nH]c(-c3ccc(C(F)(F)F)cn3)cc2cc1Oc1ccc(S(C)(=O)=O)nc1 (stereo in doubt; 5) ?
764

Any idea what %max was measured for CCOC(=O)c1ccc(Oc2cc3cc(-c4ccc(C(F)(F)F)cn4)[nH]c3cc2C2CCC(=O)N2C)cc1 (configuration not stated) ?
452

Any idea what %max was measured for Cc1cnc(-c2cc3cc(Oc4ccc(S(C)(=O)=O)nc4)c(C4CCC(=O)N4C)cc3[nH]2)s1 (stereo in doubt; 2-en) ?
482

Cited source for all entries: ChEMBL document CHEMBL4014285
